Test Target: MCH receptor (Homo sapiens, UniProt Q99705)
Construct: expressed in transfected cells; host or cells: CHO cells (membranes)
Sequence (Q99705 whole entry): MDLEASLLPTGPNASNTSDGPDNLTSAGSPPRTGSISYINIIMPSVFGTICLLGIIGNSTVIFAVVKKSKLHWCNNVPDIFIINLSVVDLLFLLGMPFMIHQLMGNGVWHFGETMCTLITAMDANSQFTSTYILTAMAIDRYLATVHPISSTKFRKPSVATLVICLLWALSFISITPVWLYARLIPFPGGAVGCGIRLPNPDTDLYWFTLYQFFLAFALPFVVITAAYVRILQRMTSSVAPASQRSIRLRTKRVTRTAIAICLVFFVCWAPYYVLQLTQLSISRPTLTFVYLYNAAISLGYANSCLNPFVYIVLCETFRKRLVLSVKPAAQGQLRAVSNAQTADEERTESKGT
Test Details: MCH Receptor Binding Assay
Condition Context: Table 1b, preferred compounds; read-out: MCH R1 Ki
Method: MCH Receptor Binding Assay: Membranes from CHO cells expressing the MCH receptor were prepared by lysing cells with 5 mM HEPES for 15 min at 4C. Cell lysates were centrifuged ([…], 15 min) and the pellet was resuspended in 5 mM HEPES. […] Nonspecific binding was determined by including 1 μM MCH in the binding reaction. […] Plates were then analyzed in a TOPCOUNT microplate scintillation counter (Packard). Data was analyzed and Ki values were determined using GraphPad Prim.
Experimental Endpoint: pKi
Hey, just a heads up that pKi is the negative log base 10 of the concentration in molar.

| Compound | Experimental Endpoint | Quantitative Result |
| --- | --- | --- |
| CN1CCN(CCCN(C(=O)Nc2ccc(F)c(C(F)(F)F)c2)[C@@H]2CC[C@@]3(c4ccc(C#N)cc4)CC23)CC1 (some centres unmarked) | pKi | 8.52 |
| N#Cc1cccc([C@@]23CC[C@@H](N(CCN4C[C@@H](O)[C@@H](O)C4)C(=O)Nc4ccc(F)c(Cl)c4)CC2C3)c1 (some centres unmarked) | pKi | 7.74 |
| CSc1cccc([C@@]23CC[C@@H](N(CCCN4CCCC4)C(=O)Nc4ccc(F)c(F)c4)CC2C3)c1 (some centres unmarked) | pKi | 7.66 |
| CN1CCN(CCCCN(C(=O)Nc2cc(Cl)nc(Cl)c2)C2CC[C@@]3(c4ccc(C#N)cc4)CC23)CC1 (some centres unmarked) | pKi | 8.70 |

We next turn to a different compound, shown below.
In: Provide measured pKi value, entry: O=C(Nc1ccc(F)c(F)c1)N(CCCN1CCCC1)[C@@H]1CC[C@@]2(c3cccc(-c4ncc[nH]4)c3)CC2C1 (some centres unmarked)
Out: 8.27
